conditions: human
The entries below come with measured Hepatotoxicity (cytolytic) values attached.
Just the number.

COC(=O)C1=C(C)NC(C)=C(C(=O)OCC(C)C)C1c1ccccc1[N+](=O)[O-] (stereo not drawn)
0
CCCC(C)(COC(N)=O)COC(N)=O [MEPROBAMATE]
0
CO[C@H]1/C=C/O[C@@]2(C)Oc3c(C)c(O)c4c(O)c(cc(O)c4c3C2=O)NC(=O)/C(C)=C\C=C\[C@H](C)[C@H](O)[C@@H](C)[C@@H](O)[C@@H](C)[C@H](OC(C)=O)[C@@H]1C
2
C/C=C(/CC)C(=O)NC(N)=O
0
Nc1ncnc2c1ncn2[C@@H]1O[C@H](CO)[C@@H](O)[C@@H]1O
0
CCCC[C@@H]1CC(=O)[C@]2(O)O[C@@H]3[C@@H](NC)[C@@H](O)[C@@H](NC)[C@H](O)[C@H]3O[C@@H]2O1
0
O=C(O)CCc1nc(-c2ccccc2)c(-c2ccccc2)o1
2
COc1ccc(-c2noc(CC(=O)O)c2-c2ccc(OC)cc2)cc1
0

## Task Entry under review: C[C@@H]1C[C@H]2[C@@H]3CCC4=CC(=O)C=C[C@]4(C)[C@@]3(F)[C@@H](O)C[C@]2(C)[C@@]1(O)C(=O)CO . Reported Hepatotoxicity (cytolytic)?
## Result 0

## Task Entry under review: COc1cccc2c1C(=O)c1c(O)c3c(c(O)c1C2=O)C[C@@](O)(C(C)=O)C[C@@H]3O[C@H]1C[C@H](N)[C@H](O)[C@H](C)O1 . Reported Hepatotoxicity (cytolytic)?
## Result 2

====

conditions: human
measurement-type: Hepatotoxicity (choleostasis)
Just the number.

Recorded Hepatotoxicity (choleostasis), per entry:
CC(=O)NC[C@H]1CN(c2ccc(N3CCOCC3)c(F)c2)C(=O)O1
0
C[C@]12C=CC(=O)C=C1CC[C@@H]1[C@@H]2CC[C@@]2(C)[C@H]1CC[C@]2(C)O (stereo in doubt; form 1) [METHANDROSTENOLONE]
0
Cc1nnc2n1-c1ccc(Cl)cc1C(c1ccccc1Cl)=NC2
2
CN(C)C(=O)OC1N=C(c2ccccc2)c2cc(Cl)ccc2N(C)C1=O (stereo unspecified)
0
Cc1cc2c(cc1CC(=O)c1sccc1S(=O)(=O)Nc1onc(C)c1Cl)OCO2
0

## Task Entry under review: N=C(N)c1ccc(/C=C/c2ccc(C(=N)N)cc2O)cc1 [HYDROXYSTILBAMIDINE] . Reported Hepatotoxicity (choleostasis)?
## Result 0

## Task Entry under review: O=C1c2ccccc2C(=O)C1c1ccc(F)cc1 . Reported Hepatotoxicity (choleostasis)?
## Result 1

====

conditions: human
measurement-type: Hepatotoxicity (benign tumour)
Just the number.

NCCNC(=O)c1ccc(Cl)cn1 [LAZABEMIDE]
0

## Task Entry under review: Cc1cc2c(C(C)C)c(O)c(O)c(C=O)c2c(O)c1-c1c(C)cc2c(C(C)C)c(O)c(O)c(C=O)c2c1O [GOSSYPOL] . Reported Hepatotoxicity (benign tumour)?
## Result 0

## Task Entry under review: C(=C\c1ccccc1)/CN1CCN(C(c2ccccc2)c2ccccc2)CC1 [CINNARIZINE] . Reported Hepatotoxicity (benign tumour)?
## Result 0

## Task Entry under review: CN(C)CC(Oc1ccccc1)Oc1ccccc1 [MEDIFOXAMINE] . Reported Hepatotoxicity (benign tumour)?
## Result 0

## Task Entry under review: Nc1ccc(C(=O)O)c(O)c1 [AMINOSALICYLIC ACID] . Reported Hepatotoxicity (benign tumour)?
## Result 0
